Test system: strains of human rhinovirus (HRV)
Assay: Antirhinoviral H1-HeLa cell culture assay (XTT cell protection, EC50), other HRV strains
Assay type: cell-based, human rhinovirus in H1-HeLa cells
Details: Human rhinovirus sp., HRV25, H1-HeLa, HRV-25; read-out: EC50
pEC50: −log10 of the molar value.
Entry flag: Met if pEC50 reaches 7; Not met if it does not.

Would you please look over these solved cases?
molecule: Cc1cc(C(=O)Nc2cccn([C@@H](Cc3ccc(F)c(F)c3)C(=O)N[C@H](/C=C/C(=O)OC3CCCCCC3)C[C@@H]3CCNC3=O)c2=O)no1 [Compound 56]
assayed_target: strains of human rhinovirus (HRV)
group: Not met
//
molecule: Cc1cc(C(=O)Nc2cccn([C@@H](Cc3ccc(F)c(F)c3)C(=O)N[C@H](/C=C/C(=O)OC3CCCCC3)C[C@@H]3CCNC3=O)c2=O)no1 [Compound 54]
assayed_target: strains of human rhinovirus (HRV)
group: Not met
//
molecule: C#CC[C@@H](C(=O)N[C@H](/C=C(\C)C(=O)OCC)C[C@@H]1CCNC1=O)n1cccc(NC(=O)c2cc(C)on2)c1=O [Compound 44]
assayed_target: strains of human rhinovirus (HRV)
group: Not met
//
molecule: CC[C@@H](C(=O)N[C@H](/C=C/C(=O)OCc1ccccc1)C[C@@H]1CCNC1=O)n1cccc(NC(=O)c2cc(C)on2)c1=O [Compound 62]
assayed_target: strains of human rhinovirus (HRV)
group: Met
//
molecule: C#CC[C@@H](C(=O)N[C@H](/C=C/C(=O)OC(C)C)C[C@@H]1CCNC1=O)n1cccc(NC(=O)c2cc(C)on2)c1=O [Compound 50]
assayed_target: strains of human rhinovirus (HRV)
group: Not met

Inquiry: Could you tell me if the measured pEC50 of Cc1cc(C(=O)Nc2cccn([C@@H](Cc3ccc(F)c(F)c3)C(=O)N[C@H](/C=C/C(=O)OC(C)(C)C)C[C@@H]3CCNC3=O)c2=O)no1 [Compound 46] reaches 7 or more?
Reply text: Not met

* * *

Tested on: HRV-14
Test: Antirhinoviral H1-HeLa cell culture assay (XTT cell protection, EC50), HRV-14
Assay type: cell-based, human rhinovirus (HRV) serotype-14 in H1-HeLa cells
Conditions: HRV-14; read-out: EC50
measured_parameter: log10 of EC50 (log10 of the value in nM)
Values are log10 of EC50 in nM.

Here is how some compounds turned out for log10 of EC50.
compound: Cc1cc(CCCCCCCOc2ccc(C3=NCCO3)cc2)on1 [WIN 51711, reference compound]
assayed_target: HRV-14
measured_parameter: log10 of EC50
experimental_result: 2.89

compound: Cc1cc(C(=O)Nc2cccn(C(Cc3ccc(F)c(F)c3)C(=O)N[C@H](/C=C/C(=O)OCC(C)(C)C)C[C@@H]3CCNC3=O)c2=O)no1 (relative stereo)
assayed_target: HRV-14
measured_parameter: log10 of EC50
experimental_result: 1.60

compound: Cc1cc(CCCCCCCOc2ccc(C3=N[C@@H](C)CO3)cc2)on1 [WIN 52084, reference compound]
assayed_target: HRV-14
measured_parameter: log10 of EC50
experimental_result: 1.85

Inquiry: Look up and report log10 of EC50, with HRV-14 as system, for Cc1cc(CCCCCOc2c(Cl)cc(C3=NCCO3)cc2Cl)on1 [WIN 54954, reference compound]
Reply text: 3.33

Inquiry: Look up and report log10 of EC50, with HRV-14 as system, for CCC(C(=O)N[C@H](/C=C/C(=O)OCC(C)(C)C)C[C@@H]1CCNC1=O)n1cccc(NC(=O)c2cc(C)on2)c1=O (relative stereo)
Reply text: 2.23

Inquiry: Look up and report log10 of EC50, with HRV-14 as system, for C#CC[C@@H](C(=O)N[C@H](/C=C/C(=O)OCC(C)(C)C)C[C@@H]1CCNC1=O)n1cccc(NC(=O)c2cc(C)on2)c1=O (relative stereo)
Reply text: 2.10

Hello, the source for this data is patent US6514997B2, in case you need it.
